Experiment: Drug level in Sprague-Dawley male rat plasma at 600 mg/kg after 14 days
Format: ADME, organism-based
Set-up: dose 600 mg/kg
measurementKind: concentration at 336 h (µg/mL)
Please respond with the number in µg/mL and leave the unit unwritten.

Any idea what its concentration at 336 h is? The compound is O=C(O)c1cccc(-c2noc(-c3ccccc3F)n2)c1 [ATALUREN]
255

###

Assay: Drug level in Sprague-Dawley female rat plasma at 300 mg/kg after 14 days
Format: ADME, organism-based
Parameters: dose 300 mg/kg
measurementKind: concentration at 336 h (µg/mL)
Give a bare numeral; the unit µg/mL is implied.

Given the entry O=C(O)c1cccc(-c2noc(-c3ccccc3F)n2)c1 , report its measured concentration at 336 h.
216
